# Read-out: MicroRNA 122 (MIR122), gene 406906
# Test Method Notes: LTEA_HepaRG_MIR122: Life Technologies and Expression Analysis (LTEA) Assay for MicroRNA 122 (MIR122) using HepaRG (AID 2283516); also: the transcript read is the microRNA miR-122
# Run Conditions: mRNA level, 48 h; actives raise or lower the signal
Calls of active or inactive are those of the source. The calls were made as follows: active = hit-call score of the fitted dose curve at least 0.9, where 1 is the maximum; inactive = score below 0.9.
Possible outcomes: active, inactive

# Compound, Assigned Class
records = [
    ("CS/C(C)=N/OC(=O)N(C)SN(C)C(=O)O/N=C(\\C)SC", "inactive"),
    ("CC1COC(Cn2cncn2)(c2ccc(Oc3ccc(Cl)cc3)cc2Cl)O1 (centres undefined)", "active"),
    ("CCCC1COC(Cn2cncn2)(c2ccc(Cl)cc2Cl)O1 (centres undefined)", "active"),
    ("CCCCOC(=O)c1ccccc1C(=O)OCCCC", "inactive"),
    ("COc1ccc(C(c2ccc(OC)cc2)C(Cl)(Cl)Cl)cc1", "active"),
    ("COC(=O)c1ccccc1C(=O)OC", "inactive"),
    ("CCCCC(CC)COC(=O)c1ccccc1C(=O)OCC(CC)CCCC (centres undefined)", "inactive"),
    ("CN(C)C(=S)SSC(=S)N(C)C", "inactive"),
    ("N#Cc1cc(Br)c(O)c(Br)c1", "active"),
    ("O=C(Nc1ccccc1)Nc1ccnc(Cl)c1", "inactive"),
    ("CCCCNC(=O)n1c(NC(=O)OC)nc2ccccc21", "inactive"),
    ("CCOC(=O)C(Cl)Cc1cc(-n2nc(C)n(C(F)F)c2=O)c(F)cc1Cl (centres undefined)", "inactive"),
    ("COP(N)(=O)SC (centres undefined)", "inactive"),
    ("OC(c1ccc(Cl)cc1)(c1cncnc1)c1ccccc1Cl (centres undefined)", "active"),
]

====

# Read-out: Monokine induced gamma interferon (MIG), CXCL9 (gene 4283)
# Test Method Notes: BSK_CASM3C_MIG: BioMAP Diversity Plus: CASM3C Assay for Monokine induced gamma interferon (MIG) Biomarker Activity (AID 2283048);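 also: MIG protein level measured by ELISA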
# Run Conditions: primary human coronary artery smooth muscle cells; actives raise or lower the signal
Active and inactive are the calls of the source. How the source made its calls: active means hit-call score of the fitted dose curve at least 0.9, where 1 is the maximum; inactive means score below 0.9.
Possible outcomes: True (active), False (inactive)

# Compound, Assigned Class
data = [
    ("CCCN(CCC)c1c([N+](=O)[O-])cc(S(N)(=O)=O)cc1[N+](=O)[O-]", "True"),
    ("CC(C)C1(C)N=C(c2nc3ccccc3cc2C(=O)O)NC1=O (stereo unspecified)", "False"),
    ("CCOC(=O)CC(SP(=S)(OC)OC)C(=O)OCC (stereo unspecified)", "False"),
    ("COc1ccc(C(c2ccc(OC)cc2)C(Cl)(Cl)Cl)cc1", "False"),
    ("O=C(O)c1nc(Cl)ccc1Cl", "False"),
    ("COc1cnc(OC)n2nc(NS(=O)(=O)c3c(OCC(F)F)cccc3C(F)(F)F)nc12", "False"),
    ("CCOC(=O)C(Cl)Cc1cc(-n2nc(C)n(C(F)F)c2=O)c(F)cc1Cl (stereo unspecified)", "False"),
    ("COP(=S)(OC)Oc1nc(Cl)c(Cl)cc1Cl", "False"),
    ("CCCCC(CC)COC(=O)c1ccccc1C(=O)OCC(CC)CCCC (stereo unspecified)", "False"),
    ("CCCCOC(=O)c1ccccc1C(=O)OCCCC", "False"),
    ("CCON=C(CC)C1=C(O)CC(c2c(C)cc(C)cc2C)CC1=O (stereo unspecified)", "False"),
]
